# System under test: full-length recombinant human NEK7 (Homo sapiens)
# Construct: full-length recombinant human NEK7; GST (N); purchased SignalChem Nab 09-10G; host or cells: Sf9 insect cells (baculovirus)
# Sequence (Q8TDX7 whole entry): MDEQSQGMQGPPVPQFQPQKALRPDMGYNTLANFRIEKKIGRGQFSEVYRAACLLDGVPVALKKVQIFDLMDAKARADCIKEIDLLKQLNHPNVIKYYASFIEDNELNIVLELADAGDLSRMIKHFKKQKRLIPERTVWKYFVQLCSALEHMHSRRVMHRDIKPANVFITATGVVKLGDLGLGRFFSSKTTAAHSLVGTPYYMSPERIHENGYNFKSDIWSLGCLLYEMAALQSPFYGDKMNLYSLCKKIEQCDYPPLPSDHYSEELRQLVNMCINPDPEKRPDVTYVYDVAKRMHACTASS
# Experiment: NEK7 Enzymatic Assay
# Type: biochemical
# Assay conditions: casein substrate, [33P]-ATP, 2 hours at room temperature
pIC50: −log10 of the molar value.
Quantity kind: pIC50

[
  {
    "Item smiles": "Nc1ncnc2c1c(-c1ccc(NC(=O)Nc3cc(C4(C(F)(F)F)CC4)on3)nc1)nn2C1CC1",
    "System under test": "full-length recombinant human NEK7 (Homo sapiens)",
    "pIC50": "6.52 to 6.82"
  },
  {
    "Item smiles": "Nc1nccc2c1c(-c1ccc(NC(=O)Nc3cc(C4(C(F)(F)F)CC4)on3)c(F)c1)nn2C1CC1",
    "System under test": "full-length recombinant human NEK7 (Homo sapiens)",
    "pIC50": "< 6.30"
  },
  {
    "Item smiles": "Nc1nccc2c1c(-c1ccc(NC(=O)Nc3cc(C4(C(F)(F)F)CC4)no3)nc1)nn2C1CC1",
    "System under test": "full-length recombinant human NEK7 (Homo sapiens)",
    "pIC50": "6.52 to 6.82"
  }
]

As a next step, examine the molecule that follows.
Write down pIC50 measured for item CC(C)(C)c1nnc(NC(=O)Nc2ccc(-c3nn(C4CC4)c4ncnc(N)c34)cc2F)o1
< 6.30
